Taken from patent US20240425587A1.

Below is a list of entries, each paired with its recorded EC50 value.
# system_under_test: T1, human PILRB, ectopically expressed on 293 cells (human, UniProt Q9UKJ0 20-227)
# T1 construct: also called hB
# measurement_description: flow cytometry, 293 cells expressing target
experimental_readout: EC50 (µg/mL)

binder="E2 (antibody, V domains shown, second hybridoma campaign) VH: EVQLQESGPSLVKPSQTLSLTCSVTGDSITSGYWNWIRKFPGDKLEYMGYISYTGTTYYNPSLKSRVSITRDTSKNQYYLQLHSVTTEDTATYYCARYPYGNFPFDYWGQGTTLTVSS VL: SIVMTQTPKFLLVSAGDRVTITCKASQSVRNDVAWYQQRPGQSPKLLIFYASSRYIGAPDRFTGSGYGTDFTFTISTVQAEDLAVYFCQQDYSSPYTFGGGTTLEIK" reported_value=2.9
binder="A14 (antibody, V domains shown, phage campaign) VH: QVQLVQSGAEVKKPGASVKVSCKASGYTFTSYYMYWVRQAPGQGLEWMGWMNPNSGNTGFAQKFQGRVTMTRDTSTSTVYMELSSLRSEDTAVYYCASGYYDSWSGETDYGMDVWGQGTTVTVSS VL: DIQMTQSPSSLSASVGDRVTITCRASQSISSYLNWYQQKPGKAPKLLIYDASTLESGVPSRFSGSGSGTDFTLTISSLQPEDFATYYCQQSYKTPYTFGQGTKLEIK" reported_value=12.9
binder="E11 (antibody, V domains shown, phage campaign) VH: QVQLVQSGAEVKKPGSSVKVSCKASGGTFSSYDISWVRQAPGQGLEWMGGIIPTFVTPKYAQKFQGRVTITADESTSTAYMELSSLRSEDTAVYYCAREGPKQLEEYYYYYMDVWGKGTTVTVSS VL: DIQMTQSPSSLSASVGDRVTITCRATQAISNSLAWYQQKPGKAPKLLIYAASYLQSGVPSRFSGSGSGTDFTLTISSLQPEDFATYYCQQAYSFPWTFGQGTKLEIK" reported_value=5.9
